assay: NCI Yeast Anticancer Drug Screen. Data for the mec2-1 strain (AID 157); conditions: S. cerevisiae mec2-1 strain, active compounds read high; at 50.0 µM unless noted
The panel holds about 79,000 compounds, 15% with a hit somewhere; the sample as a whole holds those more often.
measure: growth inhibition (%)
Give bare numbers, in %.

# annotated cases, reported growth inhibition shown
Could you tell me which growth inhibition is on file for CC(O)c1ccc[cH-]1.CC(O)c1ccc[cH-]1.[Fe+2] (stereo not given) ? 4

What value of growth inhibition has been recorded for this entry: `OC1(Cc2ccccc2)CCCCCC1` 1.3

Endpoint output: growth inhibition of `Oc1cccnc1Cl` . Value? -13.7

Answer for every listed entry: what is its growth inhibition? The entries follow.
1. CCN(CC)C(=O)C1CCN(CCOc2ccccc2)CC1
2. CCOC(=O)C(CCc1ccccc1[N+](=O)[O-])(CCc1ccccc1[N+](=O)[O-])C(=O)OCC
3. C/C(=N\NC(=S)Nc1nccs1)c1ccccn1
4. O=S(=O)([O-])[O-].O=c1[nH]cnc2[nH]ncc12.O=c1[nH]cnc2[nH]ncc12.[Zn+2]
5. CC1Nc2ccccc2C1C (stereo not given)
6. CCCCOC(=O)NC(=O)c1cc2cc(Cl)ccc2oc1=O
7. O=C(O)c1cc(C(=O)O)cc(C(=O)O)c1
8. Oc1cccc2c1CCCC2

1: 13.2; 2: -0.7; 3: 97.8; 4: 4.15; 5: -49; 6: 17.9; 7: -16.2; 8: -12.2

// each compound listed below needs its growth inhibition
1. CC(=O)Nc1nc(SCc2ccccc2)c2[nH]cnc2n1
2. N#Cc1c(-c2ccccc2)[nH]c2ccccc2c1=O
3. O=NNc1ccc(S(=O)(=O)c2ccc3ccccc3c2)cn1
4. c1ccc(N2CN(c3ccccc3)C2)cc1

1: 1.75; 2: 55.4; 3: 12.8; 4: -8.25

----------
Hi there, I'd appreciate the recorded growth inhibition for every entry that follows.
experiment: NCI Yeast Anticancer Drug Screen. Data for the rad50 strain (AID 155);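 further: 0% = growth of vehicle-only cultures of the same strain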; details: S. cerevisiae rad50 strain growth inhibition, active compounds read high; at 50.0 µM unless noted
The panel holds about 79,000 compounds, 15% with a hit somewhere; the sample as a whole holds those more often.
One number for each entry, in %.

Worked examples, 4 molecules total:
Look up growth inhibition: CCC(NN)C(=O)O (stereo not drawn) 5.45

For the molecule `COc1ccc(/C=N/NC(=O)c2sc(=S)n(-c3ccccc3)c2N)cc1` , what growth inhibition is on record? 2.9

Please give the measured growth inhibition for this molecule: Cc1ccc(/C=C/C(=O)C(C)CN(C)C)cc1C (stereo not drawn) -1

If you can, please state the reported growth inhibition value of Cc1ccc(NC(=S)N2CCCC(C)C2)cc1C (stereo not drawn) . -1.15

Record growth inhibition for all entries; do not skip any.
1. C/C(=C\CNc1ncnc2c1ncn2CCC#N)CO
2. CCCNCCC
3. CCOC(=O)[C@H]1Nc2c(cccc2[N+](=O)[O-])C2c3ccccc3CC21 (stereo partly drawn)
4. CC(C)N(Cc1ccccc1)S(=O)(=O)c1n[nH]c(C(C)(C)C)n1
5. CCOC(=O)C1C(=O)CC(C)(O)C(C(=O)OCC)C1c1ccc(OC)cc1 (stereo not drawn)
6. COC(=O)C(CCC1(C)OCCO1)C(C)=O (stereo not drawn)
7. CCCC1SCC(=O)N1c1nncs1 (stereo not drawn)
8. COC(=O)/C(C#N)=N/O

1: -17; 2: 2.1; 3: 48.5; 4: 3.2; 5: -27.4; 6: -10.4; 7: 6.5; 8: 16.6

Given the molecule `C(/C=N/NC1=NCCN1)=N\NC1=NCCN1` , what is its reported growth inhibition? 42

----------
experiment: NCI Yeast Anticancer Drug Screen. Data for the mlh1 rad18 strain (AID 175); details: S. cerevisiae mlh1 rad18 strain growth inhibition; at 50.0 µM unless noted
This is part of a sample that, as a whole, favours compounds with a hit. Of some 79,000 tested, about 15% had one in any assay. Activity calls are given as the source filed them. Rule as the data show it: active = growth inhibition above about 70%; inactive = the rest.
API: response.call in class 1 (active), class 0 (inactive)

Test call, this molecule: `Nc1c(Cl)ncnc1Nc1ccc(CCO)cc1` class 0

// return assay outcome for CCOC(=O)C(C)NC(=O)c1ccccc1 (stereo not given) class 0

Just curious, what result did `Cc1ccc(C(=O)/C=C/C(=O)c2ccc(C)cc2)cc1` get here? class 0

Any idea what this test logged for Cc1cccc(C(=O)OCC2CCCO2)c1 (stereo not given) ? class 0

What call does the record list for `Cc1cccc(C)c1NC(=O)Nc1ccccc1C(N)=O` ? class 0

Field: outcome | Entry: N/N=C1\C(=O)N(c2ccc(Cl)c(Cl)c2)C(=O)C1C(=O)Nc1ccc(Cl)c(Cl)c1 (stereo not given) class 0

What was the test verdict on `CN1CCC(O)CC1` ? class 0

Can you look up the reported call for `Cc1ncc(CO)c(/C=N\OCc2cccc(Cl)c2)c1O` for me? class 0

What is the recorded call for this molecule in the test? `NC(N)=N/N=C(\c1ccc(C(F)(F)F)cc1)c1ccc(Cl)c(Cl)c1` class 1

----------
assay: NCI Yeast Anticancer Drug Screen. Data for the cln2 rad14 strain (AID 165);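 further: 0% = growth equal to vehicle treated cultures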; details: S. cerevisiae cln2 rad14 strain, active compounds read high; at 50.0 µM unless noted
The panel holds about 79,000 compounds, 15% with a hit somewhere; the sample as a whole holds those more often.
measure: growth inhibition (%)
Answers are plain numbers, in %.

Examples with their reported growth inhibition follow.
Using the record for CCOC(=O)C1CC2OC2CC1C(=O)OCC (stereo not given) , report its growth inhibition. 12.4

I would be grateful if you could share the reported growth inhibition for `COc1cc(CCCC(C(=O)O)C(=O)O)cc(OC)c1OC` . 15.8

Data request, read-out growth inhibition, for `Cc1ccc(NC(=O)C2CCCCC2)cc1` 10.6

# lookup: growth inhibition of CCCCOC(=O)COCC(=O)OC(C)C(=O)OCCCC (stereo not given) -22.1

For the 2 molecules below, give their growth inhibition values.
1. CCOc1ccc(C(C)c2cc3c(cc2OCC(=O)O)OCO3)cc1 (stereo not given)
2. Cn1ncc2c(NC(C)(C)CC(C)(C)C)ncnc21

[25.1, 1.55]

----------
test: NCI Yeast Anticancer Drug Screen. Data for the rad50 strain (AID 155);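 further: 0% = growth of vehicle-only cultures of the same strain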; settings: S. cerevisiae rad50 strain growth inhibition, active compounds read high; at 50.0 µM unless noted
The panel holds about 79,000 compounds, 15% with a hit somewhere; the sample as a whole holds those more often. Calls of active or inactive are those of the source. Rule as the data show it: active = growth inhibition above about 70%; inactive = the rest.
measure: growth inhibition

Past entries and their recorded results:
// returns reported growth inhibition for input `C=CCOC(=O)c1ccccc1` 11.3% (inactive)

Any idea what growth inhibition was measured for `O=C(/C(=C1\SS/C(=C(/C(=O)c2ccccc2)c2ccccc2)S1)c1ccccc1)c1ccccc1` ? 34.6% (inactive)

Report growth inhibition for `CC(=O)c1ccc2c(c1)sc1ccccc12` please. 66.9% (inactive)

Which growth inhibition value belongs to `C/C=C(/Br)C(=O)O` ? -11.6% (inactive)

So what does the record say about growth inhibition for `Cc1ccc(C(=O)CC2=Nc3nnc(CCCCCCCc4nnc5n4C(=O)C(CC(=O)c4ccc(C)cc4)=N5)n3C2=O)cc1` ? -9.45% (inactive)

So what does the record say about growth inhibition for O=C1c2cc3c(cc2CC12Cc1cc4c(cc1C2=O)CCC4)CCCC3 (centres undefined) ? 6.45% (inactive)

So what does the record say about growth inhibition for `Cc1cc2nncn2c2ccccc12` ? 9.15% (inactive)

Sample `Cc1ccc2oc3c(ccc(=O)n3C)c(=O)c2c1` — what was its growth inhibition? 28.6% (inactive)

Reported growth inhibition, molecule `O=C(O)c1ccccc1C(=O)Nn1cnnc1` : ____ -7.55% (inactive)

Requested read-out: growth inhibition. Entry: `O=C1c2ccccc2C(=O)N1CN1C(=O)c2ccccc2S1(=O)=O` 24.1% (inactive)

# map each molecule to its growth inhibition
1. COC(=O)C(=O)C(C#N)c1ccccc1Cl (centres undefined)
2. OCC1OC(OC2C(CO)OC(O)C(O)C2O)C(O)C(O)C1O (centres undefined)

3.45% (inactive)
19.1% (inactive)

Quick request: growth inhibition for each listed item, please.
1. O=C1C=CC(=Nc2ccc3c(c2)-c2ccccc2C3)O1
2. CC1C(c2ccccc2)OCCN1CN1C(=O)c2ccccc2C1=O (centres undefined)
3. Cc1c2ccncc2c(C)c2c1[nH]c1ccc(O)cc12
4. COC(=O)CCC(=O)Nc1cc(C)ccc1C
5. C/C(N)=N\O

["3.2% (inactive)", "10.8% (inactive)", "16.9% (inactive)", "-6.3% (inactive)", "20.1% (inactive)"]

Dear reader, for each entry below, please note its growth inhibition.
1. COC1OC(CI)C(O)C(O)C1O (centres undefined)
2. C=C1CC[C@@H](C)[C@](C)(CCc2ccoc2)C/C=C\C=C/1C(=O)O
3. CCCCOC(=O)COCC(=O)OC(C)C(=O)OCCCC (centres undefined)

["-6.05% (inactive)", "23.7% (inactive)", "-20.9% (inactive)"]

Each of the following entries comes with a recorded value; kindly state growth inhibition for each.
1. O=C1NCCCC1C(=O)Nc1cccc2c1NCCC2 (centres undefined)
2. O=C(C[n+]1ccccc1)c1ccc(O)c(I)c1
3. Cc1ccc(S(=O)(=O)C2CC(=O)N(c3ccc(F)c(Cl)c3)C2=O)cc1 (centres undefined)
4. CO[C@H]1C[C@H](n2cc(C)c(=O)[nH]c2=O)O[C@@H]1CO
5. COC1OC(C)C(OC(=O)c2ccccc2)C(OC(=O)c2ccccc2)C1OC(=O)c1ccccc1 (centres undefined)
6. Cc1nn2c(nnn2CCO)c1-c1ccccc1
7. CC1=C(C(=O)Nc2ccccc2)C(c2ccc(N(C)C)cc2)C(C(=O)Nc2ccccc2)=C(C)N1
8. COc1ccc(C)cc1Sc1ccc([N+](=O)[O-])cc1C

1. -10.2% (inactive)
2. -5.4% (inactive)
3. -26.6% (inactive)
4. -6.55% (inactive)
5. 16.2% (inactive)
6. 10.7% (inactive)
7. -13.7% (inactive)
8. 0.65% (inactive)

Count: 3. Required value per item: growth inhibition.
1. Cc1cccc(C)c1NC(=O)Nc1ccccc1C(N)=O
2. CCCCN(CCCC)CCCC(O)c1c2ccccc2nc2ccccc12 (centres undefined)
3. CNCCc1cn(C2OC(CO)C(O)C(O)C2O)cn1 (centres undefined)

4.85% (inactive)
-3.55% (inactive)
-7.15% (inactive)

For each entry beneath this line, provide reported growth inhibition.
1. O=C(CCl)Oc1ccc2ccccc2c1
2. CCc1ccc(NN=Nc2ccccc2C#N)cc1
3. COC(=O)c1nnn(-c2ccc(Cl)cc2C)c1C(=O)c1ccc(OC)cc1

1. 27.1% (inactive)
2. 8.1% (inactive)
3. -33.4% (inactive)

Go through the list and state growth inhibition for each entry.
1. COc1ccccc1NC(=O)C(/C=N/C(=S)NNC(C)=O)=C(/C)O
2. CN1C=C(C(N)=O)Cc2ccsc21
3. Cc1cc(C)nc(/N=C(/N)Nc2ccc(S(=O)(=O)NC(=O)Nc3ccccc3)cc2)n1

1: 0.7% (inactive); 2: 10.7% (inactive); 3: 21.5% (inactive)

Parameters: items (list). Returns: growth inhibition for each item.
1. O=C(CCc1ccccc1)On1nnc2ccccc2c1=O
2. CN1NC(c2ccccc2)=C(C#N)C(=O)CC1c1ccccc1 (centres undefined)
3. CCN(c1ccccc1)S(=O)(=O)C(C)S(=O)(=O)N(CC)c1ccccc1
4. CN(C)C(CCC(=O)NC(C)(C)C)CC(=O)NC(C)(C)C (centres undefined)
5. NC(Cc1cc(Br)c(Oc2ccc(O)cc2)c(Br)c1)C(=O)O (centres undefined)
6. CCSCCC#N
7. CC(O[Si](C)(C)C)C1C=CC(C)n2c(=O)n(-c3ccccc3)c(=O)n21 (centres undefined)

1: -19.1% (inactive); 2: 6.8% (inactive); 3: -1.05% (inactive); 4: 0.2% (inactive); 5: 19.8% (inactive); 6: 11.2% (inactive); 7: 4.65% (inactive)
